- Test system: M14 melanoma
- test details: NCI tumour cell line growth inhibition, 48 h; in the data active means GI50 below about 0.43 µM; inactive means the rest
Entry note: the call must match one of active, inactive

1. COc1ccc(-c2ccc(/C=N/n3c(COc4ccccc4Cl)nn(CN4CCOCC4)c3=S)o2)c([N+](=O)[O-])c1 | inactive

query: I would be grateful if you could indicate the recorded call for CC(=O)N1CCN(CCNC(=O)n2cc(-c3ccncc3)c(-c3cc(O)cc(Cl)c3)n2)CC1 .
result: inactive

query: I would be grateful if you could indicate the recorded call for Cc1c(C#N)cccc1[C@@H](C)Nc1nnc(C)c2cnc(N3CCOCC3)cc12 .
result: inactive

query: I would be grateful if you could indicate the recorded call for COc1ccc(C(=O)c2cc(C)c(OC)c(C)c2)c(OC)c1NC(C)=O .
result: active

query: I would be grateful if you could indicate the recorded call for CN=C1C=CC(=C(c2ccc(N(C)C)cc2)c2ccc(N(C)C)cc2)C=C1 .
result: active

###

- System: CCRF-CEM leukemia
- test details: NCI tumour cell line growth inhibition, 48 h
experimental endpoint: TGI

Use the examples below as a reference point.
1. CCCc1cc(=O)n2c(C(=O)Nc3ccc(F)cc3)c(C(=O)Nc3ccc(F)cc3)sc2n1 | > 160 µM
2. COc1ccc(Oc2ccccc2N)cc1 | > 100 µM
3. CCOC1=C(c2ccccc2)N2CCCCC2O1 (stereo not drawn) | > 72.4 µM
4. Cn1c(=O)sc2cc(C(=S)N3CCCCC3)ccc21 | 43 µM
5. CC(=O)OC12C=C(C)C(C(C)C1)C1C(=O)N(CCN3CCCCC3)C(=O)C12 (stereo not drawn) | > 50 µM

For reference, reported TGI for CN1Cc2ccccc2/C=C\c2ccccc21 stands at > 100 µM

For reference, reported TGI for Cc1cccc(C(=O)O)c1C(=O)c1cccc2ccccc12 stands at > 100 µM

For reference, reported TGI for C#CCOC(=O)c1ccc(OC(C)=O)cc1 stands at > 100 µM

For reference, reported TGI for CCOC(=O)Nc1ccc(S(=O)(=O)Nn2cnnc2)cc1 stands at > 100 µM

###

- Tested on: MOLT-4 leukemia
- test details: NCI tumour cell line growth inhibition, 48 h
The molecules listed here are annotated with their TGI.

Use the examples below as a reference point.
1. O=C(CN(/C=C/C(=O)C(F)(F)F)c1ccc(Cl)cc1)c1ccc(Cl)c(Cl)c1 | 10.5 µM
2. Cc1nc(-c2cc3ccccc3oc2=O)cs1 | > 100 µM

For reference, reported TGI for O=C(Nc1nn[nH]n1)c1nc(-c2ccccc2)cc(=O)[nH]1 stands at > 100 µM

For reference, reported TGI for CC1OC(=O)C(O)=C1O (stereo unspecified) stands at > 100 µM

For reference, reported TGI for CC(C)(C)OC(=O)c1ccc(NCC2=C(Br)C(=O)C=CC2=O)cc1 stands at 45.7 µM

For reference, reported TGI for CCOC(=O)/C(=C/c1cccc(Cl)c1)N(CC)CC stands at > 100 µM

###

- System: NCI-H522 lung
- test details: NCI tumour cell line growth inhibition, 48 h; in the data active = GI50 below about 0.43 µM; inactive = the rest
Entry note: the call must match one of 1 for active, 0 for inactive

1. CN=C1C=CC(=C(c2ccc(N(C)C)cc2)c2ccc(N(C)C)cc2)C=C1 | 1
2. CCCCC#Cc1c(I)n(C)c(=O)[nH]c1=O | 0
3. O=C(NNc1ccc(Cl)cc1)C1CCC(CNS(=O)(=O)c2ccccc2Cl)CC1 (stereo not given) | 0
4. N#CC1=C(N)Oc2c(ccc3ccccc23)C1c1cc(=O)oc2ccc(Cl)cc12 (stereo not given) | 1

Now take the following molecule into account.
query: I would be grateful if you could indicate the recorded call for CCC[CH2][Sn]([CH2]CCC)([S]C#N)[S]C#N .
result: 1
